- Test system: A549
- ASSAY_TEXT: Cytotoxicity against human A549 cells incubated for 24 hrs measured 48 hrs post cell re-growth post compound dose by MTT assay
- Type: functional, cell-based
MEASURED_QUANTITY: IC50

- SMILES_REPRESENTATION: "CCN1C[C@]2(COC)[C@H](O)C[C@H](OC)[C@]34C1[C@H]([C@H](OC)[C@H]23)[C@]1(OC(=O)CCCCC(=O)O[C@]23[C@H]5[C@@H](OC(=O)c6ccccc6)[C@](O)(C[C@H]5[C@@]56C7[C@@H]2[C@H](OC)[C@@H]5[C@](COC)(CN7CC)[C@H](O)C[C@@H]6OC)[C@@H](OC)[C@@H]3O)[C@H]2[C@@H](OC(=O)c3ccccc3)[C@](O)(C[C@H]24)[C@@H](OC)[C@@H]1O"
  TEST_SYSTEM: "A549"
  OBSERVED_RESULT: "> 60 µM"
- SMILES_REPRESENTATION: "CCN1C[C@]2(COC)[C@H](O)C[C@H](OC)[C@]34C1[C@H]([C@H](OC)[C@H]23)[C@]1(OC(=O)CCCCCCC(=O)O)[C@H]2[C@@H](OC(=O)c3ccccc3)[C@](O)(C[C@H]24)[C@@H](OC)[C@@H]1O"
  TEST_SYSTEM: "A549"
  OBSERVED_RESULT: "> 60 µM"
- SMILES_REPRESENTATION: "CCN1C[C@]2(COC)[C@H](O)C[C@H](OC)[C@]34C1[C@H]([C@H](OC)[C@H]23)[C@]1(OC(=O)CCCCCCCCC(=O)O)[C@H]2[C@@H](OC(=O)c3ccccc3)[C@](O)(C[C@H]24)[C@@H](OC)[C@@H]1O"
  TEST_SYSTEM: "A549"
  OBSERVED_RESULT: "> 60 µM"
- SMILES_REPRESENTATION: "CCN1C[C@]2(COC)[C@H](O)C[C@H](OC)[C@]34C1[C@H]([C@H](OC)[C@H]23)[C@]1(OC(=O)CCCCCCCC(=O)O)[C@H]2[C@@H](OC(=O)c3ccccc3)[C@](O)(C[C@H]24)[C@@H](OC)[C@@H]1O"
  TEST_SYSTEM: "A549"
  OBSERVED_RESULT: "> 60 µM"
- SMILES_REPRESENTATION: "CCN1C[C@]2(COC)[C@H](O)C[C@H](OC)[C@]34C1[C@H]([C@H](OC)[C@H]23)[C@]1(OC(=O)CCCCCCCC(=O)O[C@]23[C@H]5[C@@H](OC(=O)c6ccccc6)[C@](O)(C[C@H]5[C@@]56C7[C@@H]2[C@H](OC)[C@@H]5[C@](COC)(CN7CC)[C@H](O)C[C@@H]6OC)[C@@H](OC)[C@@H]3O)[C@H]2[C@@H](OC(=O)c3ccccc3)[C@](O)(C[C@H]24)[C@@H](OC)[C@@H]1O"
  TEST_SYSTEM: "A549"
  OBSERVED_RESULT: "19.5 µM"
- SMILES_REPRESENTATION: "CCN1C[C@]2(COC)[C@H](O)C[C@H](OC)[C@]34C1[C@H]([C@H](OC)[C@H]23)[C@]1(OC(=O)CCC(=O)O)[C@H]2[C@@H](OC(=O)c3ccccc3)[C@](O)(C[C@H]24)[C@@H](OC)[C@@H]1O"
  TEST_SYSTEM: "A549"
  OBSERVED_RESULT: "> 60 µM"
- SMILES_REPRESENTATION: "CCN1C[C@]2(COC)[C@H](O)C[C@H](OC)[C@]34C1[C@H]([C@H](OC)[C@H]23)[C@]1(OC(=O)CCCCCCC(=O)O[C@]23[C@H]5[C@@H](OC(=O)c6ccccc6)[C@](O)(C[C@H]5[C@@]56C7[C@@H]2[C@H](OC)[C@@H]5[C@](COC)(CN7CC)[C@H](O)C[C@@H]6OC)[C@@H](OC)[C@@H]3O)[C@H]2[C@@H](OC(=O)c3ccccc3)[C@](O)(C[C@H]24)[C@@H](OC)[C@@H]1O"
  TEST_SYSTEM: "A549"
  OBSERVED_RESULT: "7.53 µM"
- SMILES_REPRESENTATION: "CCN1C[C@]2(COC)[C@H](O)C[C@H](OC)[C@]34C1[C@H]([C@H](OC)[C@H]23)[C@]1(OC(=O)CCCC(=O)O)[C@H]2[C@@H](OC(=O)c3ccccc3)[C@](O)(C[C@H]24)[C@@H](OC)[C@@H]1O"
  TEST_SYSTEM: "A549"
  OBSERVED_RESULT: "> 60 µM"

The reported numbers originate from ChEMBL document CHEMBL2040766.
